# measurement target: PI3K (Homo sapiens, UniProt P48736)
# Construct: PI3 Kinase γ IC50; other: PI3 Kinase γ; other: PI3 Kinase γ isoform, fluorescence polarization
# Sequence (P48736 whole entry, canonical isoform): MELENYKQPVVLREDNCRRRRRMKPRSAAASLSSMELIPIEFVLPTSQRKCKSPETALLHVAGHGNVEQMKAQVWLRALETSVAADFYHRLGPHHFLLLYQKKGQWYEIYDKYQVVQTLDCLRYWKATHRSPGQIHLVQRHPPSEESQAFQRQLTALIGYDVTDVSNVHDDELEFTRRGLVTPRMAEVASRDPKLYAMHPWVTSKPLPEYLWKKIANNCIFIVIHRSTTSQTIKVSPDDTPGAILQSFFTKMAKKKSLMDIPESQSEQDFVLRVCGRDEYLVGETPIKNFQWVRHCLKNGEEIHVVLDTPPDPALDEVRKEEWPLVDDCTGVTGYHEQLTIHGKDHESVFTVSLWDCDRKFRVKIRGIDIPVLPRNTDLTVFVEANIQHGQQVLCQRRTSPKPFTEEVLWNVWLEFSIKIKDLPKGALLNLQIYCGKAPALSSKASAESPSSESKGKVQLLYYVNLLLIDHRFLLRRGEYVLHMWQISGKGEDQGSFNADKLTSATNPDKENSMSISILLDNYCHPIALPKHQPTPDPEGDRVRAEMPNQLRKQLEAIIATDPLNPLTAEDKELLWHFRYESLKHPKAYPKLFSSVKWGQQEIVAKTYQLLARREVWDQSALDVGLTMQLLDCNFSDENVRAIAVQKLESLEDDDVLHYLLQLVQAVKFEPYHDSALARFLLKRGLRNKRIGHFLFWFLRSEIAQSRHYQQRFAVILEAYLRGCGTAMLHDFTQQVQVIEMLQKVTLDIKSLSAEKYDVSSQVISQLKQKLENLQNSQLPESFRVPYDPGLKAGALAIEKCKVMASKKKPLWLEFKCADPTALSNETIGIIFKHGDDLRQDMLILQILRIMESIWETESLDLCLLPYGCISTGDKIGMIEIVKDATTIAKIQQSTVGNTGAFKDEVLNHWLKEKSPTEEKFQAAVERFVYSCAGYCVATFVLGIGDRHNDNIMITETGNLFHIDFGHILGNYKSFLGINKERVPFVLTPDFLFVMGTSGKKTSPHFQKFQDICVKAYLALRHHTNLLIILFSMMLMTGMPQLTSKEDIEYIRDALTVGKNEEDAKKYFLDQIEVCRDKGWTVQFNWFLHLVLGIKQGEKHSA
# experiment summary: Fluorescence polarization assay for PI3K
# Format: biochemical
# condition label: PI3 Kinase γ isoform, fluorescence polarization; read-out: PI3 Kinase γ IC50
# Protocol: This assay is used to determine the IC50 of compounds of the present invention as it identifies inhibitors of PI3 kinase by measuring inhibition. […] Stop/detector mix is prepared by mixing 4 μL Red detector and 1.6 μL or 2.0 μL GST-GRP with 1 mL Stop buffer, which results in 10 nM probe and 70 nM GST-GRP). […] The plates are read after 30-90 minutes keeping the red probe solutions dark. […] Plates are read on machines with filters for Tamra. […]
measure name: IC50 (µM)

Solved cases below.
What does the record list as IC50 for CNC(=O)Nc1ccc(-c2nc(N3CC4COC(C3)O4)c3cnn(C)c3n2)cc1 (stereo not shown) [Example 392] ?
11

What does the record list as IC50 for O=C(Nc1ccc(-c2nc(N3C[C@@H]4C[C@H]3CO4)c3cnn(CC(F)(F)F)c3n2)cc1)Nc1ccc(N2CCOCC2)cc1 [Example 298] ?
10.4

What does the record list as IC50 for COC(=O)N1CCC(n2ncc3c(N4C5CCC4COC5)nc(-c4ccc(NC(=O)Nc5ccc(CN(C)C)cc5)cc4)nc32)CC1 [Example 366] ?
1.5

A. COC1CCC(n2ncc3c(N4CC5CCC(C4)O5)nc(-c4ccc(NC(=O)Nc5ccc(CO)cc5)cc4)nc32)CC1 (stereo not shown) [Example 308]
B. COC1CCC(n2ncc3c(N4CC5CCC(C4)O5)nc(-c4ccc(NC(=O)Nc5ccncc5)cc4)nc32)CC1 (stereo not shown) [Example 303]
C. CCn1nc(N2CCN(C)CC2)c2c(N3CC4CCC(C3)O4)nc(-c3ccc(NC(=O)NC)cc3)nc21 [Example 348]
Highest IC50 first, then in falling order down to the smallest. Respond with the label ranking, as requested.
C, A, B
(C: 8.59 µM, A: 2.72 µM, B: 0.845 µM)

---

# measurement target: PI3K (Homo sapiens, UniProt P42336)
# Construct: PI3 Kinase α IC50; other: PI3 Kinase α; other: PI3 Kinase α isoform, fluorescence polarization
# Sequence (P42336 whole entry, canonical isoform): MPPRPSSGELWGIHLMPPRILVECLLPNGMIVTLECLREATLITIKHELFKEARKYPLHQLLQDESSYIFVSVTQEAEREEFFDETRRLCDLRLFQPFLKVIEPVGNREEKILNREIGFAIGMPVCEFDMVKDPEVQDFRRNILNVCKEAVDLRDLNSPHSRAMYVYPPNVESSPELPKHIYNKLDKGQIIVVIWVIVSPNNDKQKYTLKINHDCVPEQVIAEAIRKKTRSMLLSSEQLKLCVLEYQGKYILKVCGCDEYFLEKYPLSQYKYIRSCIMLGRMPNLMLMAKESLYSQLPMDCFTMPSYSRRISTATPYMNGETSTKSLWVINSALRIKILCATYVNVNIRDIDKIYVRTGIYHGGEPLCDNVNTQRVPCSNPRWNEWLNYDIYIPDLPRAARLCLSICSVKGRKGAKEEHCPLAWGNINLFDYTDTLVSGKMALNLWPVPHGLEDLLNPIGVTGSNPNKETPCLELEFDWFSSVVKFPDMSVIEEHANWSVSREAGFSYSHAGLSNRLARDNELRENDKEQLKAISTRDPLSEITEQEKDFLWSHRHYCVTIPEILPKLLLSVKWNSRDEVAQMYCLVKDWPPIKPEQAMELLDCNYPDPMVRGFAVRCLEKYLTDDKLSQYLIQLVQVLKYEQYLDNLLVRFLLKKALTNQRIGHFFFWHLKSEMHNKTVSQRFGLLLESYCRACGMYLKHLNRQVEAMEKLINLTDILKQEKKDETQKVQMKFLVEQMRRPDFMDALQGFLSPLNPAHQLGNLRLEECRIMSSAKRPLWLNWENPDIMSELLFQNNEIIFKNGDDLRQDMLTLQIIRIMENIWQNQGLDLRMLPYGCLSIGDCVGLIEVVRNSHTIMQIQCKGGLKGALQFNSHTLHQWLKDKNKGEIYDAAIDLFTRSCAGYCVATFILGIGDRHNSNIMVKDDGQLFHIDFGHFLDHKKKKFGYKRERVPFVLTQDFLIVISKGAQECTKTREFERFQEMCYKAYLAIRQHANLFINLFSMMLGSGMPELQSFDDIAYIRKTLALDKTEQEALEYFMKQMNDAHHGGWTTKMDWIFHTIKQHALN
# experiment summary: Fluorescence polarization assay for PI3K
# Format: biochemical
# condition label: PI3 Kinase α; read-out: PI3 Kinase α IC50
measure name: IC50 (µM)

A. CC(C)n1ncc2c(N3CC4CCC(C3)O4)nc(-c3ccc(NC(=O)Nc4cccnc4)cc3)nc21
B. COC(=O)N1CCC(n2ncc3c(N4CC5CCC(C4)O5)nc(-c4ccc(N)cc4)nc32)CC1
Which of the two items, A and B , has the greater recorded IC50? Indicate your choice by writing its label.
B

P. CC(C)OC(=O)N1CCC(n2ncc3c(N4CC5CCC(C4)O5)nc(-c4ccc(N)cc4)nc32)CC1
Q. CC(C)C(=O)N1CCC(n2ncc3c(N4CC5CCC(C4)O5)nc(-c4ccc(NC(=O)Nc5cccnc5)cc4)nc32)CC1
R. CCNC(=O)Nc1ccc(-c2nc(N3CC4CCC(C3)O4)c3cnn(C4CCN(C(=O)C(C)C)CC4)c3n2)cc1
S. CCn1ncc2c(N3CC4CCC(C3)O4)nc(-c3ccc(NC(=O)NCCCN(C)C)cc3)nc21
# rank by IC50, ascending (min first) Respond with the label ranking, as requested.
Q, S, R, P
(Q: 0.454 µM, S: 1.64 µM, R: 2.35 µM, P: 4.63 µM)

P. O=C(Nc1ccc(-c2nc(N3CC4CCC(C3)O4)c3cnn(C4CCN(Cc5cccnc5)CC4)c3n2)cc1)Nc1cccnc1
Q. O=C(Nc1ccc(-c2nc(N3CC4CCC(C3)O4)c3cnn(CCO)c3n2)cc1)Nc1cccnc1
Which of the two items, P and Q , has the greater recorded IC50? Indicate your choice by writing its label.
P

A. COC(=O)N1CCC(n2ncc3c(N4CC5CCC(C4)O5)nc(-c4ccc(NC(=O)NCCN5CCN(C)CC5)cc4)nc32)CC1
B. CN1CCN(c2ccc(NC(=O)Nc3ccc(-c4nc(N5CC6CCC(C5)O6)c5cnn(CC(F)(F)F)c5n4)cc3)cc2)CC1
Could you determine which record has the numerically smaller IC50? Candidates: A and B Indicate your choice by writing its label.
B

I. CNC(=O)Nc1ccc(-c2nc(N3CC4CCC(C3)O4)c3cnn(CC(F)(F)F)c3n2)cc1
II. COC(=O)N1CCC(n2ncc3c(N4CC5CCC(C4)O5)nc(-c4ccc(NC(=O)Nc5ccncc5)cc4)nc32)CC1
III. COC(=O)N1CCC(n2ncc3c(N4CC5CCC(C4)O5)nc(-c4ccc(NC(=O)OCCN5CCN(C)CC5)cc4)nc32)CC1
IV. CCn1ncc2c(N3CC4CCC(C3)O4)nc(-c3ccc(NC(=O)NC4CCN(C)CC4)cc3)nc21
Highest IC50 first, then in falling order down to the smallest. Respond with the label ranking, as requested.
III, IV, I, II
(III: 8.04 µM, IV: 4.5 µM, I: 1.62 µM, II: 0.487 µM)
